System: SH-SY5Y cells
protocol text: AK (adenylate kinase) release ToxiLight cytotoxicity assay; further: reference of the scale not given here
setup conditions: PKIS2 primary screening
outcome measure: AK

Cc1n[nH]c2ccc(-c3cc(OC[C@@H](N)Cc4ccccc4)cnc3-c3ccoc3)cc12.O=C(O)C(F)(F)F.O=C(O)C(F)(F)F [UNC10225447A] = 97.39
NCCCC(NC(=O)c1cc(Br)c(-c2ccnc3[nH]ccc23)s1)c1ccccc1.O=C(O)C(F)(F)F.O=C(O)C(F)(F)F (stereo not shown) [UNC10225265A] = 80.18
Cl.Oc1cc(-c2nc(-c3ccccc3)[nH]c2-c2ccncc2)ccc1Cl [UNC10225128B] = 91.39
Cl.c1ccc(Oc2ccc(Nc3ccnc4cc(-c5ccc(CN6CCNCC6)o5)ccc34)cc2)nc1 [UNC10225130B] = 101.15

meta.source: paper PMC9851200
